- Assayed system: GPR73 (prokineticin 1 receptor) (Homo sapiens, UniProt Q8TCW9)
- Construct: expressed in transfected cells; host or cells: HEK 293
- Sequence (Q8TCW9 whole entry, species assumed): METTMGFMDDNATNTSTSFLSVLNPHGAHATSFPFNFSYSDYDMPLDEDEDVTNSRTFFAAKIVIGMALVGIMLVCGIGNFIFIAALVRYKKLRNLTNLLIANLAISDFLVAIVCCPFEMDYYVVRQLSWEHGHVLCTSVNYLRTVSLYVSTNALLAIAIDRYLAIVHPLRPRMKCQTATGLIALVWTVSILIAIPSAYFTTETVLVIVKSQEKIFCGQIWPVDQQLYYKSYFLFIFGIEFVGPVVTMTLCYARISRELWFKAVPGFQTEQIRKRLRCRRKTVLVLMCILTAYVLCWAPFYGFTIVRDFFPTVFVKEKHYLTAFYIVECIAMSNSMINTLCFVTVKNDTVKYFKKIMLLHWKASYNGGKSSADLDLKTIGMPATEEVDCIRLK
- Assay method text: PK1 functional assay: Ca2+ mobilization screening for PK1 antagonists on the FLIPR
- Format: cell-based
- Conditions used: HEK293, 10 μM compound; HEK 293 GPR73 cells; multiple values = multiple testing; read-out: Ca^2+ Mobilization % Inh @ 10 μM
Readout type: inhibition at 10 µM (%)
Report the value in % with no unit label.

Smiles: COc1ccc(Cn2c(CCc3cnccc3N)cc(=O)n(Cc3ccc(OC)cc3)c2=O)cc1
Value: 53

Could you share which inhibition at 10 µM value was measured for COc1ccc(Cn2c(NCc3c(C)cc(C)nc3N)nc(=O)n(Cc3ccc4c(c3)OCO4)c2=O)cc1 ? 98

Could you share which inhibition at 10 µM value was measured for Nc1cc(Cn2c(=O)nc(NCc3cccnc3N)n(Cc3ccc4c(c3)CCO4)c2=O)ccc1O ? 22
